assayed_system: T1, rCren7 (UniProt C3NHU3 1-60)
T1 sequence: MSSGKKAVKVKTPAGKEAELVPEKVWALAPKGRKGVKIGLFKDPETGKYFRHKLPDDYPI
experiment_notes: BLI; BLI: 20 mM Tris-HCl pH 6.8, 100 mM KCl, 1 mM EDTA, 0.05% Tween-20, 30°C; pull-down: 10 mM HEPES pH 7.6, 100 mM KCl, 2.5 mM MgCl2, 0.1 mg/mL BSA, room temperature
recorded_conditions: protein: recombinant; label: 5' biotin on strand 1; blunt
measure: Kd (nM)

binder="D30 (dsDNA) DNA 1: TAGAGCCCTAGTCTTCCAAACTAGCTACGC DNA 2: GCGTAGCTAGTTTGGAAGACTAGGGCTCTA" unit_tag=nM numeric_value=125
